Hello, the source for this data is patent US20130096067A1, in case you need it.

System: Raf-1^gof intestinal tumors
Assay: Luciferase screen of FDA-approved (NCI) drugs in 96-well plates, flies with Raf-1^gof intestinal tumors; note: test concentration or dose not given here
Assay type: in vivo, Drosophila
Details: log2 of the Day 3 fold difference in luciferase relative to DMSO controls
Structures can show the parent of a compound that is named as a salt.
Note to self: use Condition met only for Log2 (fold) readings below -0.009; a reading exactly at -0.009 still gets Condition not met.

# compound, label
measured = [
    ("CCN(CC)CCCC(C)Nc1c2ccc(Cl)cc2nc2ccc(OC)cc12 (stereo not drawn) [Acrichine]", "Condition met"),
    ("Nc1nc(Cl)nc2c1ncn2[C@@H]1O[C@H](CO)[C@@H](O)[C@@H]1F [Clofarabine]", "Condition met"),
    ("O=C1c2c(O)ccc(O)c2C(=O)c2c(NCCNCCO)ccc(NCCNCCO)c21 [Mitoxantrone]", "Condition met"),
    ("CNNCc1ccc(C(=O)NC(C)C)cc1 [Procarbazine]", "Condition not met"),
    ("N.N.[Cl][Pt][Cl] [Cisplatin]", "Condition not met"),
    ("O=c1[nH]c(=O)n([C@H]2C[C@H](O)[C@@H](CO)O2)cc1F [Floxuridine]", "Condition met"),
    ("CC(C)(C#N)c1cc(Cn2cncn2)cc(C(C)(C)C#N)c1 [Anastrozole]", "Condition met"),
    ("CC(C)C[C@H](NC(=O)[C@H](Cc1ccccc1)NC(=O)c1cnccn1)B(O)O [Bortezomib]", "Condition met"),
    ("Nc1ncn([C@H]2C[C@H](O)[C@@H](CO)O2)c(=O)n1 [Decitabine]", "Condition met"),
    ("CC[C@@]1(O)C(=O)OCc2c1cc1n(c2=O)Cc2cc3c(CN(C)C)c(O)ccc3nc2-1 [Topotecan HCl]", "Condition met"),
    ("Oc1ncnc2[nH]ncc12 [Allopurinol]", "Condition not met"),
    ("CC[C@]1(O)C[C@H]2CN(CCc3c([nH]c4ccccc34)[C@@](C(=O)OC)(c3cc4c(cc3OC)N(C=O)[C@H]3[C@@](O)(C(=O)OC)[C@H](OC(C)=O)[C@]5(CC)C=CCN6CC[C@]43[C@@H]65)C2)C1 [Vincristine sulfate]", "Condition met"),
    ("O=P1(NCCCl)OCCCN1CCCl (stereo not drawn) [Ifosfamide]", "Condition met"),
    ("CS(=O)(=O)CCNCc1ccc(-c2ccc3ncnc(Nc4ccc(OCc5cccc(F)c5)c(Cl)c4)c3c2)o1 [Lapatinib]", "Condition met"),
    ("CN(C)/N=N/c1[nH]cnc1C(N)=O [Dacarbazine]", "Condition met"),
    ("CC(C)Cn1cnc2c(N)nc3ccccc3c21 [Imiquimod]", "Condition not met"),
    ("N[C@@H](Cc1ccc(N(CCCl)CCCl)cc1)C(=O)O [Melphalan]", "Condition not met"),
]

----------
Parameter: Log2 (fold) (luciferase activity, log2 of the fold difference relative to DMSO controls). Scope: all listed entries.
System: Raf-1^gof intestinal tumors
Conditions: screen of 480 ICCB compounds in vials; compounds fed to flies with one-day old Raf-1^gof tumors, assessed three days later; esg-Gal4 luciferase
Where a name gives a salt, the structure may show the parent alone.
measured-parameter: Log2 (fold) (luciferase activity, log2 of the fold difference relative to DMSO controls)

# molecule, number
rows = [
    ("CCCCCC(=O)/C=C/C=C\\C/C=C\\C/C=C\\CCCC(=O)O", "−0.266"),
    ("CCOC(=O)C1=C(C)NC(=S)NC1c1cccc(O)c1 (centres unmarked)", "−0.607"),
    ("COc1c(C)c2c(c(O)c1C/C=C(\\C)CCC(=O)O)C(=O)OC2", "−0.577"),
    ("CCCCCC=CCC=CCC=CC=CC(=O)CCCC(=O)O", "−0.316"),
    ("CC(N/C(=N\\C#N)Nc1ccncc1)C(C)(C)C (centres unmarked)", "−0.591"),
    ("CC[C@]1(O)C[C@@H]2CN(CCc3c([nH]c4ccccc34)[C@@](C(=O)OC)(c3cc4c(cc3OC)N(C)[C@H]3[C@@](O)(C(=O)OC)[C@H](OC(C)=O)[C@]5(CC)C=CCN6CC[C@]43[C@@H]65)C2)C1 [Vinblastine sulfate]", "−2.290"),
    ("CCCCNC(=O)NS(=O)(=O)c1ccc(C)cc1 [TOLBUTAMIDE]", "−0.494"),
    ("C/C=C1\\[C@H]2C=C(C)C[C@]1(N)c1ccc(=O)[nH]c1C2 [Huperzine A [(−)-Huperzine A]]", "−0.641"),
]
